Data origin: patent EP2970215B1

- Target Of Assay: human GlyT1c transporter (Homo sapiens, UniProt P48067)
- Construct: expressed in transfected cells; host or cells: CHO cells (recombinant; line hGlyT1c_5_CHO is named for the uptake assay)
- Sequence (P48067 1-706): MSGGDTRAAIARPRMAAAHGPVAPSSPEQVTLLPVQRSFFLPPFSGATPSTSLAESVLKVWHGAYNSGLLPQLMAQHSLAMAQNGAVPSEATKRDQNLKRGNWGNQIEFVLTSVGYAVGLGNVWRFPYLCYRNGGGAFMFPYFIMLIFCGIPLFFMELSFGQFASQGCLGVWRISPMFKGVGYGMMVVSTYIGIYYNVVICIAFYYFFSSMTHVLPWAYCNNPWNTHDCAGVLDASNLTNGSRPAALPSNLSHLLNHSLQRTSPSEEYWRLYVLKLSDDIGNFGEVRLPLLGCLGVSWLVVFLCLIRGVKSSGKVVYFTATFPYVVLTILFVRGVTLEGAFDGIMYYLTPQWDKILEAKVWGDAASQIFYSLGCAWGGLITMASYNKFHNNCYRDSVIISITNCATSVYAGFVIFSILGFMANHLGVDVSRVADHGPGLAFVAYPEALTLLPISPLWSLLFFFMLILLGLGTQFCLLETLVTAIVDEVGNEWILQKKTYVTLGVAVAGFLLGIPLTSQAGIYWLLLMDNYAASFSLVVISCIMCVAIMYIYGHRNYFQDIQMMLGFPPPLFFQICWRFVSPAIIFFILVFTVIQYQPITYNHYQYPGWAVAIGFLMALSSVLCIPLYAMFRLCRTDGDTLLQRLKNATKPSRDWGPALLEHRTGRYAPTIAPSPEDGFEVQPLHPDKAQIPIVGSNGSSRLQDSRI
- Test Description: Radioligand binding assay using recombinant CHO cell membranes expressing human GlyT1
- Conditions: radioligand binding to human GlyT1c transporter-expressing membranes
- Description: 2. Radioligand binding assays using recombinant CHO cell membranes expressing human GlyT1: […]
As shown below, each of these compounds has a reported Ki value.

Compound: Cn1cnc(S(=O)(=O)N2C[C@H](NCc3cncs3)[C@@H](c3ccccc3)C2)c1
Ki: ≤ 10000 nM
//
Compound: O=c1[nH]c2ccc(S(=O)(=O)N3CC(Nc4ccc(F)c(F)c4)C(c4ccccc4)C3)cc2[nH]1 (centres unmarked)
Ki: ≤ 10000 nM
//
Compound: Cn1cnc(S(=O)(=O)N2C[C@@H](NC(=O)c3ccc(C(F)(F)F)cc3)[C@H](c3ccc(F)cc3)C2)c1 (relative stereo)
Ki: ≤ 100 nM
//
Compound: CCCCC(F)(F)CN[C@H]1CN(S(=O)(=O)c2cn(C)cn2)C[C@@H]1c1ccc(F)cc1
Ki: ≤ 10 nM
//
Compound: CCOCCCNC[C@@H]1CN(S(=O)(=O)c2cn(C)cn2)C[C@H]1c1ccc(F)cc1 (relative stereo)
Ki: ≤ 10000 nM
//
Compound: Cc1oc2ccccc2c1CN[C@H]1CN(S(=O)(=O)c2cn(C)cn2)C[C@@H]1c1ccccc1
Ki: ≤ 1000 nM
//
Compound: Cn1cnc(S(=O)(=O)N2C[C@@H](Nc3cc(F)cc(C#N)c3)[C@H](c3ccccc3)C2)c1 (relative stereo)
Ki: ≤ 1000 nM
//
Compound: Cn1cnc(S(=O)(=O)N2C[C@@H](Nc3cc(C(F)(F)F)ccn3)[C@H](C3CCCCO3)C2)c1 (relative stereo)
Ki: ≤ 100 nM
